The measured values listed here are drawn from paper PMC2375871.

# SYSTEM UNDER TEST: Free AMPD (wood frog skeletal muscle, control frogs)
# Construct: gene AMPD1; native, soluble (free) form in skeletal muscle extract of 5°C-acclimated control frogs, Sephadex G-50 desalted, not purified
# ASSAY METHOD TEXT: AMP deaminase activity, […] nm absorbance
# Assay type: biochemical, Lithobates sylvaticus
# PARTICULARS: as Mg·GTP, 0.5 mM AMP, pH 7.2, 25°C, allosteric
MEASURED PROPERTY: IC50 (µM)
Expressed in µM, but write only the number.

What IC50 value was documented for this compound, `Nc1nc2c(ncn2[C@@H]2O[C@H](COP(=O)(O)OP(=O)(O)OP(=O)(O)O)[C@@H](O)[C@H]2O)c(=O)[nH]1` ? 150

----------
# SYSTEM UNDER TEST: Free AMPD (wood frog skeletal muscle, control frogs)
# Construct: gene AMPD1; native, soluble (free) form in skeletal muscle extract of 5°C-acclimated control frogs, Sephadex G-50 desalted, not purified
# ASSAY METHOD TEXT: AMP deaminase activity, […] nm absorbance
# Type: biochemical, Lithobates sylvaticus
# PARTICULARS: activation constant (half-maximal activation, 1.53-fold), as Mg·ATP, 0.5 mM AMP, pH 7.2, 25°C, allosteric
MEASURED PROPERTY: EC50 (µM)
Expressed in µM, but write only the number.

What EC50 value was documented for this molecule, `Nc1ncnc2c1ncn2[C@@H]1O[C@H](COP(=O)(O)OP(=O)(O)OP(=O)(O)O)[C@@H](O)[C@H]1O` ? 1900

----------
# SYSTEM UNDER TEST: Bound AMPD (wood frog skeletal muscle, frozen frogs)
# Construct: high phosphate form (sites not known); not purified
# ASSAY METHOD TEXT: AMP deaminase activity, glutamate dehydrogenase-coupled, NADH […] nm
# PARTICULARS: activation constant (half-maximal activation, 3.42-fold), as Mg·ADP, 0.5 mM AMP, pH 7.2, 25°C, bound enzyme, allosteric
MEASURED PROPERTY: EC50 (µM)
Expressed in µM, but write only the number.

What EC50 value was documented for this compound, Nc1ncnc2c1ncn2[C@@H]1O[C@H](COP(=O)(O)OP(=O)(O)O)[C@@H](O)[C@H]1O [Mg·ADP] ? 1140
